Source listed as patent US10640512B2.

method: In vitro liver microsomal metabolism (human)
Assay type: in vitro ADME
conditionSet: human liver microsomes, NADPH, 37° C.; read-out: T1/2 in liver microsomes
Description: In addition, in vitro liver microsomal metabolism of the compounds of the present invention was also tested. The test compound was co-incubated with NADPH and mouse or human liver microsomes in a 37° C. water bath pot, a reaction was initiated by adding the test compound. […] The test compound in the supernatant was analyzed by the LC-MS/MS method. The intrinsic clearance in vitro was calculated according to the elimination half life of the test compound in the incubation system. […]
measuredQuantity: half-life (min)

[I] CC#CC(=O)N1CCC[C@H]1c1nc(-c2ccc(C(=O)Nc3ccccn3)cc2)c2c(N)nccn12 [Acalabrutinib, acalabrutinib, reference compound]
[II] CC#CC(=O)N1CCC[C@H]1c1nc(-c2ccc(Oc3ccccc3)cc2)c2c(N)nccn12
Please compare: I and II . Report which one has the smaller half-life value. # respond with the chosen item's label
II
(II: 3.13 min, I: 11.9 min)
